Source of measurements: patent US10155021B2

test system: Acinetobacter sp. (H064200250); assay: Preliminary MBC without and with sub-inhibitory polymyxin B (Example 4); type: cell-based; details: Acinetobacter, Acinetobacter spp. H064200250; without polymyxin B; preliminary MBC; 1st experiment; read-out: MBC without PB
readoutName: MBC (µg/mL)
All answers are understood in µg/mL, so give the number only.

input: Lab note: need MBC with Acinetobacter sp. (H064200250) for entry C[C@H]1COc2c(N3CCN(C)CC3)c(F)cc3c(=O)c(C(=O)O)cn1c23 [Levofloxacin, reference compound] , please look it up.
output: 16

input: Lab note: need MBC with Acinetobacter sp. (H064200250) for entry Cc1c(-c2ccc(N)cc2)ccn2c(=O)c(C(=O)O)cc(C3CC3)c12 [Compound 8] , please look it up.
output: 4

input: Lab note: need MBC with Acinetobacter sp. (H064200250) for entry Cc1c(-c2cc(F)c(N)cc2F)ccn2c(=O)c(C(=O)O)cc(C3CC3)c12 [Compound 2] , please look it up.
output: 4

input: Lab note: need MBC with Acinetobacter sp. (H064200250) for entry Cc1c(-c2ccc(N)c(F)c2)c(F)cn2c(=O)c(C(=O)O)cc(C3CC3)c12 [Compound 17] , please look it up.
output: 8
